Reference source for all entries: paper PMC5823845

# experimentDescription: Stability and intrinsic clearance in cryopreserved hepatocytes
# conditionDescription: dog
quantityKind: half-life at 30 μM

# half-life at 30 μM (molecule: CCOc1c(Cl)cc(C(=O)Nc2ccc(C(=O)O)c(C)c2)cc1OC(C)C ) is > 450 min

###

# experimentDescription: Stability and intrinsic clearance in cryopreserved hepatocytes
# conditionDescription: rat
quantityKind: half-life at 30 μM

# half-life at 30 μM (molecule: CCOc1c(Cl)cc(C(=O)Nc2ccc(C(=O)O)c(C)c2)cc1OC(C)C [Compound 56] ) is > 7.5 h

###

# experimentDescription: Stability and intrinsic clearance in cryopreserved hepatocytes
# conditionDescription: dog
quantityKind: hepatocyte CLint at 1 μM

# hepatocyte CLint at 1 μM (molecule: CCOc1c(Cl)cc(C(=O)Nc2ccc(C(=O)O)c(C)c2)cc1OC(C)C [Compound 56] ) is < 3 µL/min/1e6 cells

###

# experimentDescription: Stability and intrinsic clearance in cryopreserved hepatocytes
# conditionDescription: human
quantityKind: hepatocyte CLint at 1 μM

# hepatocyte CLint at 1 μM (compound: CCOc1c(Cl)cc(C(=O)Nc2ccc(C(=O)O)c(C)c2)cc1OC(C)C ) is < 3 µL/min/1e6 cells

###

# experimentDescription: Stability and intrinsic clearance in cryopreserved hepatocytes
# conditionDescription: dog
quantityKind: half-life at 1 μM

# half-life at 1 μM (compound: CCOc1c(Cl)cc(C(=O)Nc2ccc(C(=O)O)c(C)c2)cc1OC(C)C ) is > 7.5 h

###

# experimentDescription: Plasma protein binding, equilibrium dialysis
# Type: in vitro ADME
# conditionDescription: mouse
quantityKind: fraction unbound

# fraction unbound (compound: CCOc1c(Cl)cc(C(=O)Nc2ccc(C(=O)O)c(C)c2)cc1OC(C)C ) is 0.09

###

As shown below, each of these compounds has a reported logD value.
# experimentDescription: Log D pH 7.4, octanol/buffer shake flask method
Give only the figure.

# logD (compound: CCOc1c(Cl)cc(C(=O)Nc2ccc(C(=O)O)c(C)c2)cc1OC(C)C ) is 1.8

# logD (compound: CCOc1c(Cl)cc(C(=O)Nc2ccc(C(=O)O)cc2)cc1Cl ) is 1.7

###

# experimentDescription: in vivo
# conditionDescription: male, Beagle, dog, iv, 0.5 mg/kg
quantityKind: Vd (L/kg)
Numeric answer only, unit L/kg assumed.

# Vd (compound: CCOc1c(Cl)cc(C(=O)Nc2ccc(C(=O)O)c(C)c2)cc1OC(C)C ) is 0.66

###

As shown below, each of these compounds has a reported γ/α ratio value.
# studyTarget: mouse RAR gamma receptor (Mus musculus)
# Sequence (P18911 185-419 limits assumed): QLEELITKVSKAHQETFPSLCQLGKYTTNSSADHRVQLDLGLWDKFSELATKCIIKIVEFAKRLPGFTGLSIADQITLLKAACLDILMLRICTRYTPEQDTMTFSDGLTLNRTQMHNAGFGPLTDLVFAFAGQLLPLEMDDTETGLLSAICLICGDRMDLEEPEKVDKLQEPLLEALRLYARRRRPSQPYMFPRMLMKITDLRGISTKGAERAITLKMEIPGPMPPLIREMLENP
# conditionDescription: mouse; ratio of relative EC50s RARγ/RARα
Give only the figure.

{"compound": "O=C(O)c1ccc(NC(=O)c2cc(Cl)c(O)c(Cl)c2)cc1 [Compound 60]", "studyTarget": "mouse RAR gamma receptor (Mus musculus)", "γ/α ratio": 55}
{"compound": "CCOc1c(OC2CCCC2)cc(C(=O)Nc2ccc(C(=O)O)cc2)cc1OC1CCCC1 [Compound 32]", "studyTarget": "mouse RAR gamma receptor (Mus musculus)", "γ/α ratio": 19}
{"compound": "CCOc1cc(C(=O)Nc2ccc(C(=O)O)cc2)cc(Cl)c1OC(C)C [Compound 52]", "studyTarget": "mouse RAR gamma receptor (Mus musculus)", "γ/α ratio": 570}

Turning now to a further record.
# γ/α ratio (compound: CCCCOc1c(Cl)cc(C(=O)Nc2ccc(C(=O)O)cc2)cc1Cl [Compound 13] ) is 18

###

# studyTarget: mouse RAR gamma receptor (Mus musculus, UniProt P18911)
# conditionDescription: mouse; ratio of relative EC50s RARγ/RARα
quantityKind: γ/α ratio

Please review the following examples before continuing.
{"smilesCode": "CC(C)(C)Oc1cc(C(=O)Nc2ccc(C(=O)O)cc2)cc(Cl)c1OC(C)(C)C", "γ/α ratio": 189}
{"smilesCode": "CCOc1cc(C(=O)Nc2ccc(C(=O)O)cc2)cc(OCC)c1OCC", "γ/α ratio": 16}
{"smilesCode": "Cc1cc(NC(=O)c2cc(Cl)c(OC(C)(C)C)c(OC(C)(C)C)c2)ccc1C(=O)O", "γ/α ratio": 128}

# γ/α ratio (compound: CCOc1c(Cl)cc(C(=O)Nc2ccc(C(=O)O)c(C)c2)cc1OC ) is >250

###

# studyTarget: mouse RAR alpha receptor (Mus musculus, UniProt P11416)
# Sequence (P11416 183-417 limits assumed): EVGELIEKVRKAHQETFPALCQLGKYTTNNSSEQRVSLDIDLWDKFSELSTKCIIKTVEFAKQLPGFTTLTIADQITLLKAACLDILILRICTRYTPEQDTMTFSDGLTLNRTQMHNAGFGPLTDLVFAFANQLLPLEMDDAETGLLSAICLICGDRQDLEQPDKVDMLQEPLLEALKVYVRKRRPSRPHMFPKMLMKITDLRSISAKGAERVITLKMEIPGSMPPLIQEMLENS
# conditionDescription: relative to the amplitude of the normalizing ATRA output
quantityKind: RARα agonist type (partial / full agonist)

Please review the following examples before continuing.
{"compound": "CC(C)Oc1cc(C(=O)Nc2ccc(C(=O)O)cc2)cc(Cl)c1OC(C)C [Compound 39]", "obsValue": "full agonist"}
{"compound": "CCOc1c(Cl)cc(C(=O)Nc2ccc(C(=O)O)c(C)c2)cc1OC(C)C [Compound 56]", "obsValue": "full agonist"}
{"compound": "CCOc1c(OC2CCCC2)cc(C(=O)Nc2ccc(C(=O)O)cc2)cc1OC1CCCC1 [Compound 32]", "obsValue": "partial agonist activity"}
{"compound": "CC(C)Oc1cc(C(=O)Nc2ccc(C(=O)O)cc2)cc(OC(C)C)c1OC(C)C [Compound 33]", "obsValue": "partial agonist activity"}

Turning now to a further record.
# RARα agonist type (partial / full agonist) (compound: COc1c(Cl)cc(C(=O)Nc2ccc(C(=O)O)cc2)cc1OC(C)C [Compound 51] ) is full agonist

###

# studyTarget: mouse RAR beta receptor (Mus musculus)
# Sequence (P22605 210-444 limits assumed): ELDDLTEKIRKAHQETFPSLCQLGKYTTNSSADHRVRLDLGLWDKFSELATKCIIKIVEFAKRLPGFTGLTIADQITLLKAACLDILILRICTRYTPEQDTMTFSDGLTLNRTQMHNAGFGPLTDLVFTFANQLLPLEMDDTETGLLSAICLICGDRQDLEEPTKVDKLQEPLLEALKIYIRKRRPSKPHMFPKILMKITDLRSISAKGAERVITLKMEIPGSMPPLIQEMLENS
# conditionDescription: ratio of relative EC50s RARβ/RARα
quantityKind: β/α ratio

{"molecule": "Cc1cc(NC(=O)c2cc(Cl)c(OC(C)C)c(OC(C)C)c2)ccc1C(=O)O [Compound 44]", "β/α ratio": 45}

# β/α ratio (molecule: CCOc1cc(C(=O)Nc2ccc(C(=O)O)cc2)cc(OCC)c1OCC [Compound 62] ) is 174

# β/α ratio (molecule: O=C(O)c1ccc(NC(=O)c2cc(Cl)c(O)c(Cl)c2)cc1 [Compound 60] ) is 7

###

# experimentDescription: in vivo
# conditionDescription: male, Beagle, dog, iv, 0.5 mg/kg
quantityKind: clearance

# clearance (compound: CCOc1c(Cl)cc(C(=O)Nc2ccc(C(=O)O)c(C)c2)cc1OC(C)C [Compound 56] ) is 2.3 mL/min/kg

###

# experimentDescription: Intrinsic clearance in liver microsomes
# Assay type: in vitro ADME
# conditionDescription: liver microsomes; mouse microsomes, 37 °C, NADPH, 45 min; mean of 5
Note to self: values exactly at 30 µL/min/mg are label 1. So microsomal CLint at or above 30 µL/min/mg is label 1, below is label 0.

In: Check if microsomal CLint >= 30 µL/min/mg (inclusive). Item: CCOc1c(Cl)cc(C(=O)Nc2ccc(C(=O)O)cc2)cc1OC(C)C
Out: label 1

In: Check if microsomal CLint >= 30 µL/min/mg (inclusive). Item: CCOc1c(Cl)cc(C(=O)Nc2ccc(C(=O)O)c(C)c2)cc1Cl
Out: label 1

In: Check if microsomal CLint >= 30 µL/min/mg (inclusive). Item: CCOc1c(Cl)cc(C(=O)Nc2ccc(C(=O)O)cc2)cc1Cl
Out: label 1

###

# studyTarget: human RXR α (Homo sapiens, UniProt P19793)
# Construct: Panlabs Eurofins Pharma Discovery Services (CRO)
# Sequence (P19793 1-462): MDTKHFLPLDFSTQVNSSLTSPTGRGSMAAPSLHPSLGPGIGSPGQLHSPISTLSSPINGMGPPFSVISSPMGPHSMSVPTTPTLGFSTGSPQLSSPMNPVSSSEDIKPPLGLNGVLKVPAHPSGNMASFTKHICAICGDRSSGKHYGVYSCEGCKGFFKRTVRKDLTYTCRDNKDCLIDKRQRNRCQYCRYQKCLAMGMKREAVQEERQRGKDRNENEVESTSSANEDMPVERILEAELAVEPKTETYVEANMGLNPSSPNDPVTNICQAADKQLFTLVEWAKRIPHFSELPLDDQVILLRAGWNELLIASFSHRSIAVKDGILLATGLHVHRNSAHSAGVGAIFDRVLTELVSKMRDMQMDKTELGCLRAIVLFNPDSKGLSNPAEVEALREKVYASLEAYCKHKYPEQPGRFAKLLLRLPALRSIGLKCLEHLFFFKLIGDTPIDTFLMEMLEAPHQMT
# experimentDescription: Retinoid X Receptor radioligand binding assay, [3H] 9-cis-retinoic acid
# conditionDescription: human recombinant receptor
pIC50: −log10 of the molar value.
quantityKind: pIC50

# pIC50 (compound: CCOc1c(Cl)cc(C(=O)Nc2ccc(C(=O)O)c(C)c2)cc1OC(C)C [Compound 56] ) is < 5.00
